- tgt: DNA-dependent protein kinase catalytic subunit (Homo sapiens)
- experiment: Inhibition of human DNA-PK using EPPLSQEAFADLWKK as substrate by HTRF assay
Define the label as t when IC50 is strictly less than 10 µM and as f in all remaining cases.

Some solved cases for reference:
INPUT: Lab note: confirm whether the reported IC50 for this compound is below 10 µM, equality not counting. compound: "COc1ccc(-c2cc(Cl)cc3c(=O)nc(N4CCOCC4)oc23)cc1"
OUTPUT: f

INPUT: In the record for "NC(=O)c1ccc(-c2cccc3c(=O)nc(N4CCOCC4)oc23)cc1" , is IC50 less than 10 µM?
OUTPUT: t

INPUT: Confirm or reject: IC50 of "O=c1nc(N2CCOCC2)oc2c(-c3ccc(CO)cc3)cccc12" lies strictly below 10 µM
OUTPUT: f

INPUT: Please check: IC50 for "O=c1nc(N2CCOCC2)oc2c(-c3cccc4c3oc3ccccc34)cccc12" , strictly under 10 µM or not?
OUTPUT: t

New cases:
INPUT: # check: IC50 < 10 µM for "O=c1nc(N2CCOCC2)oc2c(-c3ccc(Cl)cc3)cccc12"
OUTPUT: f

* * *

Measured inhibition by item
- tgt: Phosphatidylinositol 4,5-bisphosphate 3-kinase catalytic subunit gamma isoform (Homo sapiens)
- experiment: Inhibition of PI3Kgamma (unknown origin) at 10 uM incubated for 60 mins by kinase-glo luminescence assay
Answer with the value and then the unit.

Examples from the recorded data:
INPUT: Which inhibition value belongs to "O=c1nc(N2CCOCC2)oc2c(-c3cccc4c3sc3ccccc34)cccc12" ?
OUTPUT: 27%

INPUT: Bench note: what inhibition did "O=c1nc(N2CCOCC2)oc2c(-c3cccs3)cccc12" show?
OUTPUT: 16%

INPUT: Any idea what its inhibition is? The compound is "O=c1nc(N2CCOCC2)oc2c(-c3ccc(CO)cc3)cccc12"
OUTPUT: 31%

New cases:
INPUT: Fill in the blank: the reported inhibition of "O=c1nc(N2CCOCC2)oc2ccc(-c3cccc(-c4ccccc4)c3)cc12" is ____.
OUTPUT: 0%

INPUT: Endpoint output: inhibition of "COc1ccc(-c2cc(Cl)cc3c(=O)nc(N4CCOCC4)oc23)cc1" . Value?
OUTPUT: 0%

INPUT: May I ask what inhibition has been recorded for "O=c1nc(N2CCOCC2)oc2ccc(-c3ccc(CO)cc3)cc12" ?
OUTPUT: 0%

INPUT: Requested read-out: inhibition. Entry: "O=c1nc(N2CCOCC2)oc2c(-c3ccsc3)cccc12"
OUTPUT: 29%

* * *

Listed below: inhibition values for each entry.
- tgt: Phosphatidylinositol 4,5-bisphosphate 3-kinase catalytic subunit gamma isoform (Homo sapiens) (UniProt P48736)
- Sequence (P48736 whole entry, looked up, canonical isoform): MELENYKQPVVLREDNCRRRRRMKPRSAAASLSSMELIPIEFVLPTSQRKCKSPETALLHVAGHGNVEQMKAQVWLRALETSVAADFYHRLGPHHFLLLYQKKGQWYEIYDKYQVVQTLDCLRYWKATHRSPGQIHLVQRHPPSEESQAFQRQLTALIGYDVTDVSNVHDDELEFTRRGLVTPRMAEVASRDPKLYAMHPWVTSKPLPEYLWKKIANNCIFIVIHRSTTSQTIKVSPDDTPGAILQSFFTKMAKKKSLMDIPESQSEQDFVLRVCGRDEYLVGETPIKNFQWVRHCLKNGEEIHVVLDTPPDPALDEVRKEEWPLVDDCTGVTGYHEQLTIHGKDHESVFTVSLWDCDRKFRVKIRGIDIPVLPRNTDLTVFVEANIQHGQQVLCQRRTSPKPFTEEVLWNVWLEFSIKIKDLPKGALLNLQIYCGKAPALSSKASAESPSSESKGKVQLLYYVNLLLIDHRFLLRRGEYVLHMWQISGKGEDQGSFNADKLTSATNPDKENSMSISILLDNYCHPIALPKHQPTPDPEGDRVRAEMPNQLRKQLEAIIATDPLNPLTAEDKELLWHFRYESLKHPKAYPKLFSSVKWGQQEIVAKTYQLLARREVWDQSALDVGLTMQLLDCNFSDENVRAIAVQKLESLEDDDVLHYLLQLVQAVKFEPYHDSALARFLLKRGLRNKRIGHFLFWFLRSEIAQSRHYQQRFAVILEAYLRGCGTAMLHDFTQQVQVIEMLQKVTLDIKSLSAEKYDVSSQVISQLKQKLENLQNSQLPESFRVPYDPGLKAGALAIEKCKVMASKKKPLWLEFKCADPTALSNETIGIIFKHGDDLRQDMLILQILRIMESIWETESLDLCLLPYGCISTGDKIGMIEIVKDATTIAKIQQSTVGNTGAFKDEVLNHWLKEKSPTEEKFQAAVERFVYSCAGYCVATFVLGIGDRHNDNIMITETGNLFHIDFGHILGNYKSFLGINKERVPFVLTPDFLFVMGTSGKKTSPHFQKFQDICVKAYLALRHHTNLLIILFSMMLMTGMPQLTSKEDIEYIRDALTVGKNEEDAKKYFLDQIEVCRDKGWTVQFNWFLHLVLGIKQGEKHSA
- experiment: Inhibition of PI3Kgamma (unknown origin) at 10 uM incubated for 60 mins by kinase-glo luminescence assay
Return type: number; implicit unit %.

INPUT: What value of measured inhibition is listed for "O=c1nc(N2CCOCC2)oc2ccc(-c3ccccc3)cc12" ?
OUTPUT: 9

INPUT: # inhibition lookup, item "NC(=O)c1ccc(-c2cccc3c(=O)nc(N4CCOCC4)oc23)cc1"
OUTPUT: 10

INPUT: Which inhibition value is on record for "Nc1cccc(-c2cccc3c(=O)nc(N4CCOCC4)oc23)c1" ?
OUTPUT: 0

---
INPUT: May I ask what inhibition has been recorded for "O=c1nc(N2CCOCC2)oc2c(-c3ccc(Cl)cc3)cccc12" ?
OUTPUT: 16
